Where do the numbers come from? From patent US20260008768A1.

- TARGET_OR_TEST_SYSTEM: human NLRP3 (Homo sapiens, UniProt Q96P20)
- Sequence (Q96P20 whole entry): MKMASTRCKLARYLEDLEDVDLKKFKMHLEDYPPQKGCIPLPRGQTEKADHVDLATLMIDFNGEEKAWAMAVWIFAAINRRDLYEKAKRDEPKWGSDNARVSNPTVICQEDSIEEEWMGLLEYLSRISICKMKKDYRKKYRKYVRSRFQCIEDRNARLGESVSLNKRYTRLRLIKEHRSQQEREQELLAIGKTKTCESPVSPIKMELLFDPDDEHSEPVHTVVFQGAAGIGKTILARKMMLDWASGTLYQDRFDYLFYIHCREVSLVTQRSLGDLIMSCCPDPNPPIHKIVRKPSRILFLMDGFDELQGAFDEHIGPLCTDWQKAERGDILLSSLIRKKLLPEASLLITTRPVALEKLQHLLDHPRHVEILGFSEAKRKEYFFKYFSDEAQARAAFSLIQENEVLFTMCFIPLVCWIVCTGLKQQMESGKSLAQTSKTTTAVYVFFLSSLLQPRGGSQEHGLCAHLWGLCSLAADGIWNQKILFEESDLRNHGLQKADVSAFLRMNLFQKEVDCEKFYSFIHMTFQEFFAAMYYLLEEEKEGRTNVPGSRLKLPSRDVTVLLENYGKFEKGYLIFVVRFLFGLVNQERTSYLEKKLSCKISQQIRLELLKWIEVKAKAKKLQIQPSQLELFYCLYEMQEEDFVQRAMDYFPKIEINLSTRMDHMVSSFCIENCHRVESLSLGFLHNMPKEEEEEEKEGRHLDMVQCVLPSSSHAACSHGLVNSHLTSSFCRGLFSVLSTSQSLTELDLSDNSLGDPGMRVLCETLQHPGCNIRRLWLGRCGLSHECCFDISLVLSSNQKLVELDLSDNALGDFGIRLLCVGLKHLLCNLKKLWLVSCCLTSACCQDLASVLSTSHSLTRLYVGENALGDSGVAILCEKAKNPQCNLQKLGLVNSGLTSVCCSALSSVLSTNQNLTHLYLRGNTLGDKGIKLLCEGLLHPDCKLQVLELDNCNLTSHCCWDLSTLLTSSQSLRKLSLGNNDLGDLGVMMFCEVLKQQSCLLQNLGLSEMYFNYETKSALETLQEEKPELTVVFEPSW
- PROCEDURE_DETAILS: Human Whole Blood (hWB) NLRP3 Assay (LPS/ATP, IL-1β)
- Assay type: cell-based
- Parameters: host or cells: human whole blood from healthy volunteers (A3)
- RUN_CONDITIONS: Table B, activity class
A collection of compounds and their measured IC50

Answered cases to consult:
[
  {
    "COMPOUND": "C[C@@H]1C[C@@H](NC(=O)N(C)c2c(F)cc(C3CC3)cc2F)[C@H]2CC[C@@H]1N2c1nnn[nH]1 (single isomer, unassigned) [60A*]",
    "OBSERVED_RESULT": "< 1 µM"
  },
  {
    "COMPOUND": "C[C@@H]1CCN(c2nnn[nH]2)C[C@H](NC(=O)N(C)c2ccc(OC(F)(F)F)cc2)C1 (single isomer, unassigned) [10A*]",
    "OBSERVED_RESULT": "< 1 µM"
  }
]

In: I would be grateful if you could share the reported IC50 for C[C@@H]1CCN(c2nnn[nH]2)C[C@H](NC(=O)N(C)c2ccc(OC(F)(F)F)c(F)c2F)C1 (single isomer, unassigned) [26A*] .
Out: > 3 µM

In: Bench note: what IC50 did C[C@@H]1CCN(c2nnn[nH]2)C[C@H](NC(=O)N(C)c2ccc(OC(F)F)c(F)c2)C1 (single isomer, unassigned) [15A*] show?
Out: < 1 µM

In: Entry C[C@@H]1CCN(c2nnn[nH]2)C[C@H](NC(=O)N(C)c2ccc(OC(F)F)c(F)c2F)C1 (single isomer, unassigned) [40A*] : reported IC50 = ?
Out: 1 to 2 µM

In: IC50 for C[C@@H]1C[C@@H](NC(=O)N(C)c2ccc(C(F)(F)F)cc2F)[C@H]2CC[C@@H]1N2c1nnn[nH]1 (single isomer, unassigned) [48A*] ?
Out: < 1 µM

====

- TARGET_OR_TEST_SYSTEM: UniProtKB Q96P20
- PROCEDURE_DETAILS: Scintillation Proximity (SPA) NLRP3 Assay, displacement of 3H-MCC950
- Type: binding
- RUN_CONDITIONS: Table B, activity class; displacement of 3H-MCC950 from human NLRP3
PROPERTY_MEASURED: IC50

[
  {
    "MOLECULE": "C[C@@H]1C[C@H](NC(=O)N(C)c2ccc(Cl)c(F)c2)[C@H]2CC[C@@H]1N2c1nnn[nH]1 (single isomer, unassigned) [50B*]",
    "IC50": "> 100 µM"
  }
]

For the next question, use this molecule.
In: // query IC50 value for entry C[C@@H]1C[C@H](NC(=O)N(C)c2ccc(OC(F)F)c(F)c2F)[C@H]2CC[C@@H]1N2c1nnn[nH]1 (single isomer, unassigned) [58B*]
Out: > 100 µM

====

- TARGET_OR_TEST_SYSTEM: human NLRP3 (Homo sapiens, UniProt Q96P20)
- PROCEDURE_DETAILS: Scintillation Proximity (SPA) NLRP3 Assay, displacement of 3H-MCC950
- Type: binding
- RUN_CONDITIONS: Table B, activity class; displacement of 3H-MCC950 from human NLRP3
Listing: IC50 of selected compounds

[
  {
    "COMPOUND": "C[C@H]1CCN(c2nnn[nH]2)C[C@@H](NC(=O)N(C)c2ncc(C(F)(F)F)cn2)C1 (single isomer, unassigned) [30D*]",
    "IC50": "> 100 µM"
  }
]

In: Endpoint output: IC50 of C[C@@H]1CCN(c2nnn[nH]2)C[C@H](NC(=O)N(C)c2ccc(Cl)cc2Cl)C1 (single isomer, unassigned) [7A*] . Value?
Out: < 1 µM

In: Reported IC50, compound C[C@H]1CCN(c2nnn[nH]2)C[C@@H](NC(=O)N(C)c2ccc(OC(F)F)c(OC(F)F)c2)C1 (single isomer, unassigned) [16D*] : ____
Out: 1 to 10 µM
